These measurements were taken from paper PMC3388095.

Molecular target: p38α MAPK insert (Homo sapiens, UniProt Q16539, C119S/C162S/S252C)
Construct: His-tag with PreScission Protease cleavage site (N); made in house; host or cells: E. coli BL21(DE3) Codon+RIL
Sequence (Q16539 whole entry C119S/C162S/S252C): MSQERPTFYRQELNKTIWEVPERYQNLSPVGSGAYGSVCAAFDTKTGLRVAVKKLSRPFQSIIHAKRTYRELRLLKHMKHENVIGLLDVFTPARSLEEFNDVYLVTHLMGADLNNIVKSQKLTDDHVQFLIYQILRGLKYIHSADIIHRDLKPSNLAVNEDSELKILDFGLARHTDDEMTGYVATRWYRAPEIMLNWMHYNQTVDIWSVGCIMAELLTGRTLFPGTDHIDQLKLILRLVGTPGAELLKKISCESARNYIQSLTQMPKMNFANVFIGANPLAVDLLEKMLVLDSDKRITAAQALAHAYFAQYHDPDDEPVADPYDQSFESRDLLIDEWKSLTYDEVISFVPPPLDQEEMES
Test: FLiK direct binding assay, acrylodan-labeled p38α (S252C) MAPK insert / lipid binding site
Conditions: binding to p38α MAPK insert; value as printed in text
MEASURED PARAMETER: Kd (nM)
Give bare numbers, in nM.

Quick check: Kd on p38α MAPK insert (Homo sapiens, UniProt Q16539, C119S/C162S/S252C), item O=[N+]([O-])c1ccc2c(NCCc3ccccc3)nc(-c3ccccc3)nc2c1 [8a] ?
280
